# Tested on: rabbit skeletal myofibrils (approximately 90% fast fibers)
# test_name: Activation of fast skeletal myofibrils (PUMA coupled-enzyme ATPase assay)
# Assay type: biochemical
# applied_conditions: AC1.4 = concentration at which the compound increased the enzymatic activity by 40%; myofibril suspension at calcium level pCa25; PM12 buffer pH 6.8
assay_metric: Mean AC1.4

CC(C)(CNc1cc(-c2ccc(F)cc2)ccn1)c1ccc(F)cc1	D (D=>20 uM)
CC(C)(CNc1ccc(-c2ccc(C(N)=O)cc2)cn1)c1ccc(F)cc1	B (B=1-10 uM)
CC(C)(Nc1ncc(-n2cc(C(N)=O)cn2)nn1)c1cccc(OC(F)F)n1	B (B=1-10 uM)
CC(C)(Nc1ncc(-n2cc(C(N)=O)cn2)nn1)c1ncccc1F	D (D=>20 uM)
